Test system: OPM-2
assay-info: Inhibition of proliferation (Alamar Blue cell viability), OPM-2
Format: cell-based
assay-setup: Homo sapiens; Multiple myeloma, OPM-2, 72 h; read-out: Inhibition of cell growth, IC50
measured-property: IC50
Give your result as the value with the unit written after it.

# input Hello, please tell me recorded IC50 for this one: `Cc1sc2c(c1C)C(c1ccc(Cl)cc1)=NN(C)c1nnc(C)n1-2`
# output 260 nM

---

target-desc: BRD4 (Homo sapiens)
assay-info: AlphaScreen assay, Bromodomain 4 inhibition
Type: binding
measured-property: pIC50
Notebook: values listed as pIC50 are -log10 of the concentration (mol/L).

# input Hello, please tell me recorded pIC50 for this one: `Cc1sc2c(c1C)C(c1ccc(Cl)cc1)=NN(C)c1nnc(C)n1-2`
# output 6.82

---

System: LP-1
assay-info: Inhibition of proliferation (Alamar Blue cell viability), LP-1
Assay type: cell-based
assay-setup: Homo sapiens; Multiple myeloma, LP-1, 72 h; read-out: Inhibition of cell growth, IC50
measured-property: pIC50
Notebook: values listed as pIC50 are -log10 of the concentration (mol/L).

# input Hello, please tell me recorded pIC50 for this one: `Cc1sc2c(c1C)C(c1ccc(Cl)cc1)=NN(C)c1nnc(C)n1-2`
# output 6.44

---

target-desc: BRD4 (Homo sapiens, UniProt O60885)
assay-info: AlphaScreen assay, Bromodomain 4 inhibition
Type: binding
assay-setup: AlphaScreen, acetylated histone peptide; read-out: Potency as inhibitor of BRD4, IC-50
This listing pairs molecules with measured IC50.
Give your result as the value with the unit written after it.

The following molecules have reported results that may help.
[
  {
    "molecule": "Cc1sc2c(c1C)C(c1ccc(Cl)cc1)=NN(CC(=O)OC(C)(C)C)c1nnc(C)n1-2",
    "IC50": "100 nM"
  },
  {
    "molecule": "Cc1sc2c(c1C)C(c1ccc(Cl)cc1)=NN(CC(=O)O)c1nnc(C)n1-2.Cl [Compound 42, hydrochloride]",
    "IC50": "290 nM"
  }
]

Next item in the queue.
# input Fill in: IC50 on BRD4 (Homo sapiens, UniProt O60885), entry `CCOC(=O)CN1N=C(c2ccc(Cl)cc2)c2c(sc(C)c2C)-n2c(C)nnc21`
# output 11 nM
